test system: KM12; assay: Growth inhibition of human KM12 cells at 10 uM incubated for 48 hrs by sulforhodamine B assay relative to control; assay type: functional; conditions: KM12, 48 h, read-out: GI
Let's look at some molecules and their measured inhibition of growth at 10 µM.

- Molecule: "CCOC(=O)C1=C(C)NC(SCc2nnc(-c3ccc(Cl)cc3)o2)=NC1c1ccc(OC)cc1 (stereo not drawn)"
  Readout type: "inhibition of growth at 10 µM"
  Reported value: "< 10%"
- Molecule: "CCOC(=O)C1=C(C)NC(SCc2nnc(-c3ccc(Cl)cc3)o2)=NC1c1cccc(Cl)c1 (stereo not drawn)"
  Readout type: "inhibition of growth at 10 µM"
  Reported value: "16%"
- Molecule: "CCOC(=O)C1=C(C)NC(SCc2nnc(-c3ccc(OC)cc3)o2)=NC1c1ccc(F)cc1 (stereo not drawn)"
  Readout type: "inhibition of growth at 10 µM"
  Reported value: "< 10%"
- Molecule: "CCOC(=O)C1=C(C)NC(SCc2nnc(-c3ccc(Cl)cc3)o2)=NC1c1ccc(Br)cc1 (stereo not drawn)"
  Readout type: "inhibition of growth at 10 µM"
  Reported value: "24%"
- Molecule: "CCOC(=O)C1=C(C)NC(SCc2nnc(-c3ccc(Cl)cc3)o2)=NC1c1ccc(F)cc1 (stereo not drawn)"
  Readout type: "inhibition of growth at 10 µM"
  Reported value: "< 10%"

Query: Param readout= inhibition of growth at 10 µM; system= KM12; entry= COc1ccc(-c2nnc(CSC3=NC(c4ccc(F)cc4)C(C(C)=O)=C(C)N3)o2)cc1 (stereo not drawn) ; returns value.
Result: < 10%

Query: Param readout= inhibition of growth at 10 µM; system= KM12; entry= CCOC(=O)C1=C(C)NC(SCc2nnc(-c3ccc(Cl)cc3)o2)=NC1c1ccccc1 (stereo not drawn) ; returns value.
Result: 10.3%

Query: Param readout= inhibition of growth at 10 µM; system= KM12; entry= CCOC(=O)C1=C(C)NC(SCc2nnc(-c3ccc(Cl)cc3)o2)=NC1c1ccc(Cl)cc1 (stereo not drawn) ; returns value.
Result: 30.3%

Query: Param readout= inhibition of growth at 10 µM; system= KM12; entry= CC(=O)C1=C(C)NC(SCc2nnc(-c3ccc(Cl)cc3)o2)=NC1c1ccc(F)cc1 (stereo not drawn) ; returns value.
Result: < 10%

Query: Param readout= inhibition of growth at 10 µM; system= KM12; entry= CCOC(=O)C1=C(C)NC(SCc2nnc(-c3ccc(Cl)cc3)o2)=NC1c1ccc(Cl)cc1Cl (stereo not drawn) ; returns value.
Result: 36.6%

* * *

Let's look at some compounds and their measured inhibition of growth at 10 µM.
tested on: OVCAR-5; assay: Growth inhibition of human OVCAR5 cells at 10 uM incubated for 48 hrs by sulforhodamine B assay relative to control; format: functional; conditions: OVCAR-5, 48 h, read-out: GI

- Compound: "CC(=O)C1=C(C)NC(SCc2nnc(-c3ccc(Cl)cc3)o2)=NC1c1ccc(F)cc1 (stereo not given)"
  Reported value: "< 10%"

Now consider the entry below.
Query: Param readout= inhibition of growth at 10 µM; system= OVCAR-5; entry= CCOC(=O)C1=C(C)NC(SCc2nnc(-c3ccc(Cl)cc3)o2)=NC1c1ccc(F)cc1 (stereo not given) ; returns value.
Result: < 10%

* * *

Let's look at some compounds and their measured inhibition of growth at 10 µM.
test system: ACHN; assay: Growth inhibition of human ACHN cells at 10 uM incubated for 48 hrs by sulforhodamine B assay relative to control; assay type: functional; settings: read-out: GI
Answer in %, number only, no unit symbol.

- Compound: "CCOC(=O)C1=C(C)NC(SCc2nnc(-c3ccc(Cl)cc3)o2)=NC1c1ccc(Br)cc1 (centres undefined)"
  Target: "ACHN"
  Reported value: 30.3
- Compound: "CCOC(=O)C1=C(C)NC(SCc2nnc(-c3ccc(Cl)cc3)o2)=NC1c1ccc(Cl)cc1Cl (centres undefined)"
  Target: "ACHN"
  Reported value: 42.3
- Compound: "CCOC(=O)C1=C(C)NC(SCc2nnc(-c3ccc(C)cc3)o2)=NC1c1ccc(F)cc1 (centres undefined)"
  Target: "ACHN"
  Reported value: 19

Now consider the entry below.
Query: Can you look up the measured inhibition of growth at 10 µM of CC(=O)C1=C(C)NC(SCc2nnc(-c3ccc(Cl)cc3)o2)=NC1c1ccc(Cl)cc1 (centres undefined) for me?
Result: 13.5

* * *

system: MCF7; assay: Growth inhibition of human MCF7 cells at 10 uM incubated for 48 hrs by sulforhodamine B assay relative to control; type: functional; conditions: MCF7, 48 h, read-out: GI
Readout type: inhibition of growth at 10 µM (%)
Answer in %, number only, no unit symbol.

- Molecule: "CCOC(=O)C1=C(C)NC(SCc2nnc(-c3ccc(Cl)cc3)o2)=NC1c1ccc(Cl)cc1Cl (centres undefined)"
  Target: "MCF7"
  inhibition of growth at 10 µM [%]: 68
- Molecule: "CC(=O)C1=C(C)NC(SCc2nnc(-c3ccc(Cl)cc3)o2)=NC1c1ccc(Cl)cc1 (centres undefined)"
  Target: "MCF7"
  inhibition of growth at 10 µM [%]: 16.4
- Molecule: "CC(=O)C1=C(C)NC(SCc2nnc(-c3ccc(Cl)cc3)o2)=NC1c1ccc(F)cc1 (centres undefined)"
  Target: "MCF7"
  inhibition of growth at 10 µM [%]: 10.6
- Molecule: "CCOC(=O)C1=C(C)NC(SCc2nnc(-c3ccc(Cl)cc3)o2)=NC1c1ccc(F)cc1 (centres undefined)"
  Target: "MCF7"
  inhibition of growth at 10 µM [%]: 13.3

Query: Can you look up the measured inhibition of growth at 10 µM of CCOC(=O)C1=C(C)NC(SCc2nnc(-c3ccc(Cl)cc3)o2)=NC1c1ccccc1 (centres undefined) for me?
Result: 18.2

Query: Can you look up the measured inhibition of growth at 10 µM of CCOC(=O)C1=C(C)NC(SCc2nnc(-c3ccc(C)cc3)o2)=NC1c1ccc(F)cc1 (centres undefined) for me?
Result: 14

* * *

tested on: Hs-578T; assay: Growth inhibition of human Hs 578T cells at 10 uM incubated for 48 hrs by sulforhodamine B assay relative to control; format: functional; conditions: read-out: GI
Readout type: inhibition of growth at 10 µM

- Molecule: "CCOC(=O)C1=C(C)NC(SCc2nnc(-c3ccc(C)cc3)o2)=NC1c1ccc(F)cc1 (centres undefined)"
  Reported value: "< 10%"
- Molecule: "CCOC(=O)C1=C(C)NC(SCc2nnc(-c3ccc(Cl)cc3)o2)=NC1c1ccc(Br)cc1 (centres undefined)"
  Reported value: "12.9%"
- Molecule: "CCOC(=O)C1=C(C)NC(SCc2nnc(-c3ccc(Cl)cc3)o2)=NC1c1ccc(OC)cc1 (centres undefined)"
  Reported value: "< 10%"

Query: Param readout= inhibition of growth at 10 µM; system= Hs-578T; entry= CC(=O)C1=C(C)NC(SCc2nnc(-c3ccc(Cl)cc3)o2)=NC1c1ccc(F)cc1 (centres undefined) ; returns value.
Result: < 10%

* * *

test system: HOP-62; assay: Growth inhibition of human HOP62 cells at 10 uM incubated for 48 hrs by sulforhodamine B assay relative to control; assay type: functional; conditions: HOP-62, 48 h, read-out: GI
Readout type: inhibition of growth at 10 µM (%)
Answer in %, number only, no unit symbol.

Worked examples follow.
- Molecule: "CCOC(=O)C1=C(C)NC(SCc2nnc(-c3ccc(Cl)cc3)o2)=NC1c1ccc(Br)cc1 (stereo not drawn)"
  Target: "HOP-62"
  Reported value: 13.1
- Molecule: "COc1ccc(-c2nnc(CSC3=NC(c4ccc(F)cc4)C(C(C)=O)=C(C)N3)o2)cc1 (stereo not drawn)"
  Target: "HOP-62"
  Reported value: 19.4
- Molecule: "CC(=O)C1=C(C)NC(SCc2nnc(-c3ccc(Cl)cc3)o2)=NC1c1ccc(Cl)cc1 (stereo not drawn)"
  Target: "HOP-62"
  Reported value: 11.6
- Molecule: "CCOC(=O)C1=C(C)NC(SCc2nnc(-c3ccc(Cl)cc3)o2)=NC1c1ccc(Cl)cc1Cl (stereo not drawn)"
  Target: "HOP-62"
  Reported value: 17.5
- Molecule: "CCOC(=O)C1=C(C)NC(SCc2nnc(-c3ccc(Cl)cc3)o2)=NC1c1cccc(Cl)c1 (stereo not drawn)"
  Target: "HOP-62"
  Reported value: 25.1
- Molecule: "CCOC(=O)C1=C(C)NC(SCc2nnc(-c3ccc(Cl)cc3)o2)=NC1c1ccccc1 (stereo not drawn)"
  Target: "HOP-62"
  Reported value: 27.8

Now consider the entry below.
Query: Can you look up the measured inhibition of growth at 10 µM of CCOC(=O)C1=C(C)NC(SCc2nnc(-c3ccc(OC)cc3)o2)=NC1c1ccc(F)cc1 (stereo not drawn) for me?
Result: 12

* * *

test system: MDA-MB-468; experiment: Growth inhibition of human MDA-MB-468 cells at 10 uM incubated for 48 hrs by sulforhodamine B assay relative to control; format: functional; conditions: MDA-MB-468, 48 h, read-out: GI
Readout type: inhibition of growth at 10 µM (%)
Answer in %, number only, no unit symbol.

Query: Param readout= inhibition of growth at 10 µM; system= MDA-MB-468; entry= CCOC(=O)C1=C(C)NC(SCc2nnc(-c3ccc(C)cc3)o2)=NC1c1ccc(F)cc1 (stereo not drawn) ; returns value.
Result: 18.1

Query: Param readout= inhibition of growth at 10 µM; system= MDA-MB-468; entry= CC(=O)C1=C(C)NC(SCc2nnc(-c3ccc(Cl)cc3)o2)=NC1c1ccc(F)cc1 (stereo not drawn) ; returns value.
Result: 11.3

Query: Param readout= inhibition of growth at 10 µM; system= MDA-MB-468; entry= CCOC(=O)C1=C(C)NC(SCc2nnc(-c3ccc(Cl)cc3)o2)=NC1c1ccccc1 (stereo not drawn) ; returns value.
Result: 14.7

The origin of these recorded values is ChEMBL document CHEMBL4190234.
